- Tested on: P-glycoprotein (P-gp)
- ASSAY: in vitro
- EXPERIMENTAL_SETUP: dog, MDCK-MDR1
RECORDED_ENDPOINT: Papp B→A (×10⁻⁶ cm/s)
The reply should contain only the number, in ×10⁻⁶ cm/s.

Request: Reported Papp B→A, molecule COC(=O)c1ccccc1-c1c2ccc(=N)cc-2oc2cc(N)ccc12 [rhodamin 123, rhodamine 123] : ____
Response: 3.31

---

- ASSAY: bidirectional transport across the MDCK-pHaMDR cell monolayer (in vitro BBB model)
- EXPERIMENTAL_SETUP: dog, MDCK-MDR1, pH 7.35
RECORDED_ENDPOINT: Papp A→B at 90 min, 100 µM

Request: Reported Papp A→B at 90 min, 100 µM, molecule C/C=C/c1cc(OC)c2c(c1)[C@@H](C)[C@H](c1ccc3c(c1)OCO3)O2 : ____
Response: < 0.062 ×10⁻⁶ cm/s

Request: Now the same for COc1cc2c(cc1O)[C@H](c1ccc3c(c1)OCO3)[C@@H](C)[C@H](C)C2
Response: < 0.073 ×10⁻⁶ cm/s

Request: Now the same for COc1cc(CC(C)C(C)Cc2ccc(O)c(OC)c2)ccc1O (stereo not shown) [Compound 10, dihydroguaiaretic acid]
Response: < 0.145 ×10⁻⁶ cm/s

Request: Now the same for O=C(CCCCCCCCc1ccccc1)c1c(O)cccc1O
Response: < 0.038 ×10⁻⁶ cm/s
